The values you see were collected from ChEMBL document CHEMBL1122978.

Assign Uterine weight to each entry below.
# target: Estrogen receptor (Mus musculus) (UniProt O08537+P19785)
# Sequence (O08537 whole entry, looked up): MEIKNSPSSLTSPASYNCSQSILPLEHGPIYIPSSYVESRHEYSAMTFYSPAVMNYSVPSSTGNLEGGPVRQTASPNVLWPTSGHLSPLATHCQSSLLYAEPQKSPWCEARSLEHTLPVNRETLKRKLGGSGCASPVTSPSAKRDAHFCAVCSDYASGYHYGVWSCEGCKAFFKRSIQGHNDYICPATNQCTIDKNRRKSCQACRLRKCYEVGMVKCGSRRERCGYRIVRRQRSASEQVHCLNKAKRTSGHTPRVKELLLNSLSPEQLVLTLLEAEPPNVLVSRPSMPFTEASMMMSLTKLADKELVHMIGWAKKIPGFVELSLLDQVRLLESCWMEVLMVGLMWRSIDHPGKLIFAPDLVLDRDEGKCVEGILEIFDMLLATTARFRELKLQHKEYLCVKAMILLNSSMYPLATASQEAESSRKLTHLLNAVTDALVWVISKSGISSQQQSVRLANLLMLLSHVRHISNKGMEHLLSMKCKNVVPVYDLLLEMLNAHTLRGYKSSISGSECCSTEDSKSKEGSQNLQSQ
# Sequence (P19785 whole entry, looked up): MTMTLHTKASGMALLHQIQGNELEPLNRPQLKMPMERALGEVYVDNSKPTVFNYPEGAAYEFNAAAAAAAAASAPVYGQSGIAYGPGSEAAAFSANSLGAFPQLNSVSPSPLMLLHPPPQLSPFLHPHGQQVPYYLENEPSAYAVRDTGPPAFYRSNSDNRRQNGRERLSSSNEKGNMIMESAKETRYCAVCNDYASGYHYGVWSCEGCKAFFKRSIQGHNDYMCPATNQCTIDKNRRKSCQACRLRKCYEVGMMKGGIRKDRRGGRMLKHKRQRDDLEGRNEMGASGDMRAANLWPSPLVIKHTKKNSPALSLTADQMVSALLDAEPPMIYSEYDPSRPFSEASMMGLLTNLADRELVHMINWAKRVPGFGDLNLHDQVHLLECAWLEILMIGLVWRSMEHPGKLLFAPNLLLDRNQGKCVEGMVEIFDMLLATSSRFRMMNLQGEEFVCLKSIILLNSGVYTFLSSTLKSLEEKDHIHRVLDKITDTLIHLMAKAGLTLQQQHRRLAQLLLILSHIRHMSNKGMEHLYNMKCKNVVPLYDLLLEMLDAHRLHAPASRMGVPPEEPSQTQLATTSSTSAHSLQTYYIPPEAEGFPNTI
# assay details: In vivo anti-uterotrophic activity in mice following 1 ug estradiol i.p.
# Assay type: functional, organism-based
# cond: in the assay text read “s.c.” for “i.p.”
State just the number; it will be interpreted in mg.

Consider COc1ccc(/C=C(\C(=O)c2ccccc2)c2ccccc2)cc1 . Its measured Uterine weight is 15.3

Consider CC(=O)Oc1ccc(/C=C(/C(=O)c2ccc(OC(C)=O)cc2)c2ccccc2)cc1 . Its measured Uterine weight is 14

Consider O=C(/C(=C/c1ccccc1)c1ccc(O)cc1)c1ccccc1 . Its measured Uterine weight is 18.4

Consider O=C(/C(=C\c1ccccc1)c1ccc(O)cc1)c1ccc(O)cc1 . Its measured Uterine weight is 14.7

Consider CC(=O)Oc1ccc(/C=C(/C(=O)c2ccccc2)c2ccccc2)cc1 . Its measured Uterine weight is 17.3

Consider COc1ccc(C(=O)/C(=C/c2ccccc2)c2ccccc2)cc1 . Its measured Uterine weight is 20.2

Consider O=C(/C(=C/c1ccc(O)cc1)c1ccccc1)c1ccccc1 . Its measured Uterine weight is 14

Consider O=C(/C(=C\c1ccccc1)c1ccccc1)c1ccc(O)cc1 . Its measured Uterine weight is 13.6

Consider O=C(/C(=C/c1ccccc1)c1ccccc1)c1ccccc1 . Its measured Uterine weight is 15.4

Consider O=C(/C(=C/c1ccc(O)cc1)c1ccc(O)cc1)c1ccccc1 . Its measured Uterine weight is 16.9
